These measurements were taken from paper PMC11206691.

# METHOD_DESCRIPTION: Solubility limit assay (turbidity, DMEM-F12 + 10% FBS)
# Type: physicochemical
# CONDITION_SET: DMEM-F12 without phenol red with 10% FBS, plasma or biological fluid, kinetic from dmso stock; pH 7.4, DMEM-F12 with 10% FBS, 1% DMSO, upper limit 200 µM
Overview of recorded solubility for various compounds
RECORDED_METRIC: solubility (µM)

INSERT INTO results (compound, rel, value) VALUES
  ('COc1cccc(CON=C(C)c2c(C)cc(=O)n(O)c2O)c1', '=', 117),
  ('COc1ccc(COc2cc(N)[n+]([O-])c(N)n2)cc1', '>', 200),
  ('C#CCCON=C(C)c1c(C)cc(=O)n(O)c1O', '>', 200),
  ('Nc1cc(Oc2cc(Cl)c(Cl)cc2Cl)nc(N)[n+]1[O-]', '=', 167),
  ('CC(=NOC(CNC(=O)c1ccco1)c1cc(F)cc(F)c1)c1c(C)cc(=O)n(O)c1O (stereo not drawn)', '=', 175),
  ('C#CCON=C(C)c1c(C)cc(=O)n(O)c1O', '=', 167),
  ('CSc1ccc(CON=C(C)c2c(C)cc(=O)n(O)c2O)cc1', '>', 200),
  ('CC(=NOC(C)c1ccccc1)c1c(C)cc(=O)n(O)c1O (stereo not drawn)', '>', 200),
  ('COC(=O)c1ccc(CON=C(C)c2c(C)cc(=O)n(O)c2O)c(F)c1', '>', 200);

----------
# METHOD_DESCRIPTION: Parallel artificial membrane permeability assay
# Type: in vitro ADME
# CONDITION_SET: PAMPA, pH 7.4, pH 7.4, 200 μM, 2 h, room temperature
# Method: Apparent passive permeability (Papp) was assessed at pH 7.4 using a 96-well donor/acceptor cassette (Sigma Aldrich, Burlington, MA, USA), which mimics the apical and basolateral sides of the small intestine epithelium, as we have described previously. […] The cassette was assembled and incubated at room temperature with shaking at 250 rpm for 2 h, after which 100 μL of the acceptor well was retrieved and the experimental compound absorbance was read on a plate reader between 200 and 600 nm. […]
Label y when Papp at 2 h, 200 µM is strictly below 4 ×10⁻⁶ cm/s; otherwise label n.

INSERT INTO assay_data (compound, class_assignment) VALUES
  ('CC(=NOC(CNC(=O)c1ccco1)c1cc(F)cc(F)c1)c1c(C)cc(=O)n(O)c1O (centres unmarked) [Compound 37]', 'n'),
  ('CC(=NOCc1ccc(O)cc1)c1c(C)cc(=O)n(O)c1O [Compound 39]', 'n'),
  ('Nc1cc(Oc2ccc(Cl)cc2Cl)nc(N)[n+]1[O-] [Compound 57]', 'y'),
  ('CC(=NOC(CNC(=O)c1ccc2ccccc2n1)c1cc(F)cc(F)c1)c1c(C)cc(=O)n(O)c1O (centres unmarked) [Compound 49]', 'n'),
  ('COC(=O)c1ccc(CON=C(C)c2c(C)cc(=O)n(O)c2O)c(F)c1 [Compound 45]', 'y'),
  ('CC(=NOCc1ccc([N+](=O)[O-])cc1)c1c(C)cc(=O)n(O)c1O [Compound 48]', 'n'),
  ('COc1cccc(CON=C(C)c2c(C)cc(=O)n(O)c2O)c1 [Compound 35]', 'n'),
  ('COc1ccc(COc2cc(N)[n+]([O-])c(N)n2)cc1 [Compound 58]', 'y'),
  ('COC(=O)c1ccc(CON=C(C)c2c(C)cc(=O)n(O)c2O)c(C#N)c1 [Compound 44]', 'n'),
  ('C#CCCON=C(C)c1c(C)cc(=O)n(O)c1O [Compound 41]', 'y'),
  ('Nc1cc(Oc2cc(Cl)c(Cl)cc2Cl)nc(N)[n+]1[O-] [Compound 56]', 'y'),
  ('CC(=NOC(c1cc(F)cc(F)c1)c1ccccn1)c1c(C)cc(=O)n(O)c1O (centres unmarked) [Compound 38]', 'y'),
  ('CC(=NOC(CNC(=O)c1nccs1)c1cc(F)cc(F)c1)c1c(C)cc(=O)n(O)c1O (centres unmarked) [Compound 50]', 'n'),
  ('CC(=NOC(C)c1ccccc1)c1c(C)cc(=O)n(O)c1O (centres unmarked) [Compound 46]', 'y'),
  ('C#CCON=C(C)c1c(C)cc(=O)n(O)c1O [Compound 42]', 'y'),
  ('C#CCCCON=C(C)c1c(C)cc(=O)n(O)c1O [Compound 40]', 'y'),
  ('COC(=O)c1ccc(C(C)ON=C(C)c2c(C)cc(=O)n(O)c2O)cc1 (centres unmarked) [Compound 34]', 'y'),
  ('COC(=O)c1ccc(CON=C(C)c2c(C)cc(=O)n(O)c2O)cc1 [Compound 47]', 'n'),
  ('CSc1ccc(CON=C(C)c2c(C)cc(=O)n(O)c2O)cc1 [Compound 33]', 'n'),
  ('COC(=O)c1cc(Cl)c(CON=C(C)c2c(C)cc(=O)n(O)c2O)c(Cl)c1 [Compound 36]', 'n');

----------
# Tested on: HBV replication
# METHOD_DESCRIPTION: qPCR HBV replication inhibition assay in HepDES19 cells
# Format: cell-based, Hepatitis B virus (HBV) genotype D
# CONDITION_SET: Hepatitis B virus, 72 h, (+) DNA qPCR, read-out: EC50
RECORDED_METRIC: EC50

INSERT INTO measurements (compound, value) VALUES
  ('C#CCCON=C(C)c1c(C)cc(=O)n(O)c1O [Compound 41]', '1.2 µM'),
  ('C#CCON=C(C)c1c(C)cc(=O)n(O)c1O [Compound 42]', '5.4 µM'),
  ('COc1cccc(CON=C(C)c2c(C)cc(=O)n(O)c2O)c1 [Compound 35]', '1.9 µM'),
  ('CC(=NOC(CNC(=O)c1ccco1)c1cc(F)cc(F)c1)c1c(C)cc(=O)n(O)c1O (centres unmarked) [Compound 37]', '4.7 µM'),
  ('CC(=NOC(c1cc(F)cc(F)c1)c1ccccn1)c1c(C)cc(=O)n(O)c1O (centres unmarked) [Compound 38]', '2.3 µM'),
  ('CC(=NOCc1ccc([N+](=O)[O-])cc1)c1c(C)cc(=O)n(O)c1O [Compound 48]', '1.1 µM'),
  ('COC(=O)c1ccc(CON=C(C)c2c(C)cc(=O)n(O)c2O)c(C#N)c1 [Compound 44]', '7.7 µM'),
  ('COC(=O)c1cc(Cl)c(CON=C(C)c2c(C)cc(=O)n(O)c2O)c(Cl)c1 [Compound 36]', '3.1 µM'),
  ('CSc1ccc(CON=C(C)c2c(C)cc(=O)n(O)c2O)cc1 [Compound 33]', '1.4 µM'),
  ('Nc1cc(Oc2cc(Cl)c(Cl)cc2Cl)nc(N)[n+]1[O-] [Compound 56]', '> 100 µM'),
  ('Nc1cc(Oc2ccc(Cl)cc2Cl)nc(N)[n+]1[O-] [Compound 57]', '> 100 µM');

----------
# METHOD_DESCRIPTION: Solubility limit assay (turbidity, DMEM-F12 + 10% FBS)
# Format: physicochemical
# CONDITION_SET: DMEM-F12 without phenol red with 10% FBS, plasma or biological fluid, kinetic from dmso stock; pH 7.4, DMEM-F12 with 10% FBS, 1% DMSO, upper limit 200 µM
RECORDED_METRIC: solubility

INSERT INTO results (molecule, recorded_metric, value) VALUES
  ('COC(=O)c1ccc(CON=C(C)c2c(C)cc(=O)n(O)c2O)c(C#N)c1 [Compound 44]', 'solubility', '> 200 µM'),
  ('CC(=NOCc1ccc(O)cc1)c1c(C)cc(=O)n(O)c1O [Compound 39]', 'solubility', '> 200 µM'),
  ('COC(=O)c1ccc(CON=C(C)c2c(C)cc(=O)n(O)c2O)cc1 [Compound 47]', 'solubility', '> 200 µM'),
  ('CC(=NOC(c1cc(F)cc(F)c1)c1ccccn1)c1c(C)cc(=O)n(O)c1O (centres unmarked) [Compound 38]', 'solubility', '167 µM'),
  ('CC(=NOCc1ccc([N+](=O)[O-])cc1)c1c(C)cc(=O)n(O)c1O [Compound 48]', 'solubility', '> 200 µM'),
  ('CC(=NOC(CNC(=O)c1ccc2ccccc2n1)c1cc(F)cc(F)c1)c1c(C)cc(=O)n(O)c1O (centres unmarked) [Compound 49]', 'solubility', '> 200 µM'),
  ('CC(=NOC(CNC(=O)c1nccs1)c1cc(F)cc(F)c1)c1c(C)cc(=O)n(O)c1O (centres unmarked) [Compound 50]', 'solubility', '> 200 µM'),
  ('COC(=O)c1cc(Cl)c(CON=C(C)c2c(C)cc(=O)n(O)c2O)c(Cl)c1 [Compound 36]', 'solubility', '163 µM');
